# TESTED TARGET: PD-1/PD-L1 (Homo sapiens)
# Sequence (Q9NZQ7 19-238 limits assumed): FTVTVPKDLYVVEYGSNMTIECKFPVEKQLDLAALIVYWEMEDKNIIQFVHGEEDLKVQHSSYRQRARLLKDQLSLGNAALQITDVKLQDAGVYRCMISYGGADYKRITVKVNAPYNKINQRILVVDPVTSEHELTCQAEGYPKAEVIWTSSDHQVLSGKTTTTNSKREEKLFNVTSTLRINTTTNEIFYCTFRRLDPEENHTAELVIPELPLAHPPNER
# TEST DESCRIPTION: PD-1/PD-L1 biochemical protein-protein interaction assay (ALPHA)
# CONDITION SUMMARY: 0.3 nM His tagged PD-L1, 2.5 nM biotinylated Fc-PD-1, 60 minutes at 25° C., read-out: IC50 PD-L1-PD-1 Alpha IC50-mono PD-L1-fcP-D1
pIC50: −log10 of the molar value.
# label = 1 (yes) if pIC50 >= 9 else 0 (no)

COMPOUND	TESTED TARGET	CLASS
Cc1c(COc2cc(OCc3cncc(C#N)c3)c(CN[C@@](C)(CO)C(=O)O)cc2Cl)cccc1-c1cccc(-c2ccc(CNCC3CCC(=O)N3)cc2)c1C (some centres unmarked)	PD-1/PD-L1 (Homo sapiens)	1 (yes)
COc1nc(O[C@H]2CCc3c(-c4cccc(-c5ccc(CNC[C@@H]6CCC(=O)N6)cc5)c4Cl)cccc32)c(Cl)cc1CN1CC[C@H](O)C1	PD-1/PD-L1 (Homo sapiens)	1 (yes)
Cc1c(COc2cc(OCc3cncc(C#N)c3)c(CNC[C@@H](O)CC(=O)O)cc2Cl)cccc1-c1cccc(-c2nc3cc(CNC[C@@H](O)CC(=O)O)ccc3o2)c1C	PD-1/PD-L1 (Homo sapiens)	1 (yes)
Cc1c(COc2ccc(CNC[C@@H](O)CC(=O)O)c(-c3cncc(C#N)c3)c2)cccc1-c1cccc(COc2ccc(CNC[C@@H](O)CC(=O)O)c(-c3cncc(C#N)c3)c2)c1C	PD-1/PD-L1 (Homo sapiens)	0 (no)
COc1nc(O[C@H]2CCc3c(-c4cccc(-c5ccc(CNC[C@@H]6CCC(=O)N6)c(OCC#N)n5)c4Cl)cccc32)c(Cl)cc1CNC[C@@H]1CCC(=O)N1	PD-1/PD-L1 (Homo sapiens)	1 (yes)
COc1nc(O[C@H]2CCc3c(-c4cccc(-c5ccc(C6=NCCN6)c(OC)n5)c4Cl)cccc32)c(Br)cc1CN[C@](C)(CO)C(=O)O	PD-1/PD-L1 (Homo sapiens)	1 (yes)
Cc1c(COc2cc(OCc3cc(C#N)cc(C#N)c3)c(CNC[C@@H](O)CC(=O)O)cc2Cl)cccc1-c1cccc(COc2cc(OCc3cc(C#N)cc(C#N)c3)c(CNC[C@@H](O)CC(=O)O)cc2Cl)c1C	PD-1/PD-L1 (Homo sapiens)	0 (no)
Cc1c(COc2nc(OCCc3cncnc3)c(CNC[C@@H](O)CC(=O)O)cc2Br)cccc1-c1cccc(COc2nc(OCCc3cncnc3)c(CNC[C@@H](O)CC(=O)O)cc2Br)c1C	PD-1/PD-L1 (Homo sapiens)	1 (yes)
